- Tested on: electrically stimulated guinea pig ileal longitudinal muscle
- EXPERIMENTAL PROTOCOL: cells
- Type: cell-based
- CONDITIONS USED: Cavia porcellus; control, before FNA; guinea pig ileum; read-out: IC50 Control
READOUT KIND: pIC50
One number for each entry, as −log10 of the molar value.

# input Read off the recorded pIC50 for C=CCN1CC[C@]23c4c5ccc(O)c4O[C@H]2[C@@H](O)C=C[C@H]3[C@H]1C5
# output 7.55
